Assign ELISA Absorbance (405 nm-570 nm) to each entry below.
Target: T1, IL13RA1
T1 construct: coated protein in the ELISA; also called IL13RA1-Fc-His (R&D Systems)
T1 chain: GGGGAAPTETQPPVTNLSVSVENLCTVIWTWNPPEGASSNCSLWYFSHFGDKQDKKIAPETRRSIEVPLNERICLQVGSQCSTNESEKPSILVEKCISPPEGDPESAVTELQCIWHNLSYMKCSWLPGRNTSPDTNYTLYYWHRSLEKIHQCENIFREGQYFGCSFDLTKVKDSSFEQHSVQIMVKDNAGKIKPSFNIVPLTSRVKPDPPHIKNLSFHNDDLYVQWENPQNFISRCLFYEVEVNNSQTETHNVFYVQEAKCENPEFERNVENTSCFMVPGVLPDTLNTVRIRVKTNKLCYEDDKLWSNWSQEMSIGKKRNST
Assay: ELISA on coated IL13RA1-Fc-His, 150 ng IgG1; None 0.094
Field format: numeric only.

Exam item: Bench note: what ELISA Absorbance (405 nm-570 nm) did TH9-0022 (antibody, human IgG1, kappa, L234A L235A, V domains shown, also called TH9-022; negative control) VH: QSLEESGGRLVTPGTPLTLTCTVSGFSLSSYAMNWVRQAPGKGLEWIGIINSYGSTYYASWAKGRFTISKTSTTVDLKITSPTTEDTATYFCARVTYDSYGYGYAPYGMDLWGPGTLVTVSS VL: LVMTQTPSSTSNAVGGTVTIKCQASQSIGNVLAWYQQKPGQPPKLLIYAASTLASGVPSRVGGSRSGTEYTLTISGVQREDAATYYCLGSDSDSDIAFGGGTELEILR show?
Marked response: 0.08

Exam item: Would you kindly repeat that for HW-97 chimeric rabbit-human IgG1 LA/LA/PG (antibody, V domains shown, Fc-silenced (L234A/L235A/P329G) IgG1, lambda; Alexa Fluor 647-labeled in single-step flow cytometry; Prototype of cluster C-97) VH: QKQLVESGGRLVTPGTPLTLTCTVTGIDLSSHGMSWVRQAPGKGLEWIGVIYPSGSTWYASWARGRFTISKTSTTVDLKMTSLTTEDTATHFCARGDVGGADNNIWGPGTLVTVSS VL: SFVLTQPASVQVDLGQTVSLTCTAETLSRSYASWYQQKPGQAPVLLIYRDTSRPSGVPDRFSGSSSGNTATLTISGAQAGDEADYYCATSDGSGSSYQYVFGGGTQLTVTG ?
Marked response: 0.08
